Data credit: patent US20210317140A1

Target: BTK (Homo sapiens)
Construct: purchased Reaction Biology Corporation
Sequence (Q06187 whole entry): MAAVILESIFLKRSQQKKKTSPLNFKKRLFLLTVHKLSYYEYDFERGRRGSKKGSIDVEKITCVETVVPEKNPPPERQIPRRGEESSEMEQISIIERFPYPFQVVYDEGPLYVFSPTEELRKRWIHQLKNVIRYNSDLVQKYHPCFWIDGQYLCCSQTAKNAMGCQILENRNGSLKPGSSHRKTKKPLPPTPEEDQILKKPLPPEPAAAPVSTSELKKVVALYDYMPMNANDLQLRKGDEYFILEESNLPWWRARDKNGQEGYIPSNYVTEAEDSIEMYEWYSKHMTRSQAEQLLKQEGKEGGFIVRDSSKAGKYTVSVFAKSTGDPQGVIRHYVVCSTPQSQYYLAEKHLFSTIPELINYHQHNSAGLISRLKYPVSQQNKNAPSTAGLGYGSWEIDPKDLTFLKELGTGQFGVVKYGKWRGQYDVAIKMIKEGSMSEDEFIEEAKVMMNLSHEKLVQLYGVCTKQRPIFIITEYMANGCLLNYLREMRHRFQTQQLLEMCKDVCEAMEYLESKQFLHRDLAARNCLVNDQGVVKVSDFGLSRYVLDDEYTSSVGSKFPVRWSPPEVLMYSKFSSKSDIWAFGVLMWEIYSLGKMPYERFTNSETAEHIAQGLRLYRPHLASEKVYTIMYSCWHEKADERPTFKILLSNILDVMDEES
Test: BTK kinase assay (HotSpot, 33P ATP)
Format: biochemical
Conditions: 0.01 μM compound, 10 μM ATP
Observable: BTK @ 0.01 μM (% Inh)

Answered examples (5):
>>> observed_value("Nc1ncnc2c1c(-c1cc(O)c(F)c(Cl)c1)nn2C1Cc2ccccc2C1 [compound 117]")
21.31
>>> observed_value("Nc1ncnc2c1c(-c1cc(O)c(F)c(F)c1)cn2C1CCc2ccccc2C1 (centres unmarked) [compound 114]")
41.16
>>> observed_value("Nc1cc(-c2nn(C3Cc4ccccc4C3)c3ncnc(N)c23)cc(F)c1F [compound 109]")
14.85
>>> observed_value("N#Cc1cc(-c2cn(C3Cc4ccccc4C3)c3ncnc(N)c23)cc(O)c1F [compound 115]")
12.09
>>> observed_value("CNc1cc(-c2cn(C3Cc4ccccc4C3)c3ncnc(N)c23)cc(F)c1F [compound 113]")
8.12

A. CCCCOc1cc(-c2nn(C3Cc4ccccc4C3)c3ncnc(N)c23)ccc1OC [Compound No. 90]
B. Nc1ncnc2c1c(-c1ccc3[nH]c(O)nc3c1)nn2C1Cc2ccccc2C1 [compound 108]
C. C=CC(=O)N1CC(n2nc(-c3cc(O)cc(F)c3)c3c(N)ncnc32)Cc2cc(C)ccc21 (single isomer, unassigned) [31b]
Input line: Order these by BTK @ 0.01 μM (% Inh), descending, and give the full ranking. Write out the labels following the order that was asked for.
Output line: C, A, B
(C: 64.36 % Inh, A: 7.39 % Inh, B: 1.76 % Inh)

* * *

Molecular target: TEC (Homo sapiens, UniProt P42680)
Construct: purchased Reaction Biology Corporation
Sequence (P42680 1-631): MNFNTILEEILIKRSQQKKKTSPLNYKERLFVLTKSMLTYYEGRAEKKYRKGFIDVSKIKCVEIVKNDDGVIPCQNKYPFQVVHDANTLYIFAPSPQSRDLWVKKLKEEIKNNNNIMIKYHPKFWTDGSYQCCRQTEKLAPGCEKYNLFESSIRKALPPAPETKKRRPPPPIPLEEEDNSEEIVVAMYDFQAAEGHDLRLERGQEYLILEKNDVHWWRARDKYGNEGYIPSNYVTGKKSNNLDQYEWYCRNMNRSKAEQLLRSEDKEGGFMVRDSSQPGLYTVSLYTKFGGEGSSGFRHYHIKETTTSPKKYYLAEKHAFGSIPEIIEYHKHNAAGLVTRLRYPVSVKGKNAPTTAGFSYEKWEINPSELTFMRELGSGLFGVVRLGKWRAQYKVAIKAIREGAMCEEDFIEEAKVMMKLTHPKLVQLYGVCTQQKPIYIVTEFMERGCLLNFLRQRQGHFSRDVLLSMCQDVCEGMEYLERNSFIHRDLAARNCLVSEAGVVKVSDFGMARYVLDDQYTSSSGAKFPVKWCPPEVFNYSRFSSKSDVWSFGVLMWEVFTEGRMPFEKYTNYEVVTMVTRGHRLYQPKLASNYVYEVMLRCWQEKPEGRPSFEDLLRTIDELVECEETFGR
Experiment: TEC kinase profiling (BTK protocol)
Type: biochemical
Conditions: 0.3 μM compound
Observable: TEC @ 0.3 μM (% Inh)

>>> observed_value("Nc1ncnc2c1c(-c1ccc(Br)c(O)c1)nn2C1CCc2ccccc2C1 (stereo not drawn)")
20.18
>>> observed_value("Nc1ncnc2c1c(-c1cc(O)c(F)c(C(F)(F)F)c1)nn2C1Cc2ccccc2C1")
"−3.89"
>>> observed_value("Nc1ncnc2c1c(-c1ccc(Cl)c(O)c1)cn2C1Cc2ccccc2C1")
106.37
>>> observed_value("COc1ccc(-c2nn(C3CCc4ccccc4C3)c3ncnc(N)c23)cc1OC (racemic)")
11.45
>>> observed_value("Nc1ncnc2c1c(-c1cc(O)c(F)c(F)c1)nn2C1Cc2ccccc2C1")
71.22
>>> observed_value("Nc1ncnc2c1c(-c1ccc3cc[nH]c3c1)nn2C1CCc2ccccc2C1 (racemic)")
10.01
>>> observed_value("C=CC(=O)N1CC(n2nc(-c3cc(O)cc(F)c3)c3c(N)ncnc32)Cc2cc(C)ccc21 (stereo not drawn) [compound 31]")
57.08
>>> observed_value("Nc1ncnc2c1c(-c1cc(O)c(Cl)c(Cl)c1)cn2C1Cc2ccccc2C1")
87.72

P. Nc1ncnc2c1c(-c1cc(O)c(F)c(F)c1)cn2C1Cc2ccccc2C1
Q. COc1ccc(-c2nn(C3Cc4ccccc4C3)c3ncnc(N)c23)cc1O
Input line: Which entry has a larger number for TEC @ 0.3 μM (% Inh), P or Q ? Pick one and reply with its label.
Output line: P

P. Nc1ncnc2c1c(-c1cc(O)cc(F)c1)cn2C1Cc2ccccc2C1
Q. COc1cc(-c2nn(C3Cc4ccccc4C3)c3ncnc(N)c23)ccc1C
Input line: Recorded TEC @ 0.3 μM (% Inh) values differ for P and Q ; which one is higher? Provide the label of your selected option as the answer.
Output line: P
(P: 88.12 % Inh, Q: 44.68 % Inh)
